# Tested on: barnyardgrass (Echinochloa crus-galli)
# assay.details: Test A preemergence, visual injury rating
# Type: in vivo
# recorded.conditions: 125 g ai/ha, 0 to 100 scale (0 no effect, 100 complete control)
experimental.endpoint: Barnyardgrass plant response rating

Respectfully, I request Barnyardgrass plant response rating for each entry included below.
1. CC(=NOC(C)C)c1c(Cl)cccc1Oc1ncc(Cl)cn1 [Compound 104]
2. O=C(OCC(Cl)CCl)c1c(Br)cccc1Oc1ncc(Cl)cn1 (stereo not drawn) [Compound 97]
3. O=C(OCC(F)(F)F)c1c(F)cccc1Oc1ncc(Cl)cn1 [Compound 48]

Reply text:
1: 30; 2: 10; 3: 0

====

# Test system: giant foxtail (Setaria faberii)
# assay.details: Test A preemergence, visual injury rating
# Format: in vivo
# recorded.conditions: 125 g ai/ha, 0 to 100 scale (0 no effect, 100 complete control)
# Description: […]
So basically: Foxtail, Giant plant response rating at 60 or higher? That is true (1). Lower than 60? That is false (0).

# example entries with known answers
>  <molecule>
O=C(OCC(F)(F)F)c1c(Br)cccc1Oc1ncc(Br)cn1 [Compound 34]

>  <class.label>
true (1)

$$$$
>  <molecule>
C=C(C)CCOC(=O)c1c(Br)cccc1Oc1ncc(Cl)cn1 [Compound 90]

>  <class.label>
true (1)

$$$$

Inquiry: Check the entry O=C(OCCC(F)(F)F)c1cc(Cl)ccc1Oc1ncc(Cl)cn1 [Compound 88] : does Foxtail, Giant plant response rating equal or exceed 60?
Reply text: false (0)

Inquiry: Evaluate O=C(SCC(F)(F)F)c1c(Br)cccc1Oc1ncc(Cl)cn1 [Compound 85] : Foxtail, Giant plant response rating at minimum 60?
Reply text: false (0)

Inquiry: Confirm if Foxtail, Giant plant response rating reported for the molecule C=CC(C)COC(=O)c1c(Br)cccc1Oc1ncc(Cl)cn1 (stereo not drawn) [Compound 37] is 60 or above.
Reply text: true (1)

Inquiry: Does CC(C)=CCOC(=O)c1c(Br)cccc1Oc1ncc(Cl)cn1 [Compound 11] have a reported Foxtail, Giant plant response rating of at least 60?
Reply text: false (0)

Inquiry: Is Foxtail, Giant plant response rating at least 60? Consider O=C(CCCCC(F)(F)F)c1c(Br)cccc1Oc1ncc(Cl)cn1 [Compound 82]
Reply text: true (1)

Inquiry: Decide: is the reported value of Foxtail, Giant plant response rating for N#CCCOC(=O)c1c(Br)cccc1Oc1ncc(Cl)cn1 [Compound 7] equal to or greater than 60?
Reply text: true (1)

====

# System: pigweed (Amaranthus retroflexus)
# assay.details: Test A postemergence, visual injury rating
# Assay type: in vivo
# recorded.conditions: 500 g ai/ha, 0 is no effect, 100 is complete control
experimental.endpoint: Pigweed plant response rating (0 to 100 scale)
Answers are plain numbers.

>  <molecule>
CCC(C)OC(=O)c1c(Br)cccc1Oc1ncc(Cl)cn1 (centres unmarked)

>  <measurement>
70

$$$$

Please give Pigweed plant response rating (0 to 100 scale), item by item, for the list that follows.
1. N#CCOC(=O)c1c(Br)cccc1Oc1ncc(Cl)cn1
2. CCSC(=O)c1c(Br)cccc1Oc1ncc(Cl)cn1

Reply text:
100
70

Quick one: give me Pigweed plant response rating (0 to 100 scale) for each item below, same order please.
1. CCCCC(=O)c1c(Br)cccc1Oc1ncc(Cl)cn1
2. CC(CN(C)C(=O)c1c(Br)cccc1Oc1ncc(Cl)cn1)C(F)(F)F (centres unmarked)

Reply text:
100
20
